Readings of GI50 for the listed molecules
- Tested on: UACC-257 melanoma
- Method notes: NCI tumour cell line growth inhibition, 48 h
Attribute measured: GI50

{"columns": ["Molecule", "Measurement target", "Value measured"],
 "data": [
  ["CCOc1ccc2c(c1)C(=O)c1c-2n(CCCN=[N+]=[N-])c(=O)c2cc([N+](=O)[O-])ccc12", "UACC-257 melanoma", "96.4 µM"],
  ["CC(=O)N1N=C(c2ccc(C)cc2)CC1c1cn(-c2ccccc2)nc1-c1cccc(Nc2ccnc3cc(Cl)ccc23)c1 (stereo not drawn)", "UACC-257 melanoma", "> 100 µM"],
  ["CC/C(=C(/c1ccc(OCCN(C)C)cc1)c1ccc(OC(=O)CCCCCCCCC(=O)c2c(C)[nH]c(/C=C3\\N=C(c4ccc[nH]4)C=C3OC)c2C)cc1)c1ccccc1", "UACC-257 melanoma", "62.5 µM"],
  ["CCN(CC)CC(O)c1cc(-c2ccc(Cl)cc2)nc2c(C)c(Cl)ccc12 (stereo not drawn)", "UACC-257 melanoma", "2.12 µM"],
  ["Cn1c(=O)c(Oc2ccc(F)cc2F)cc2cnc(NCC(C)(C)O)nc21", "UACC-257 melanoma", "> 25 µM"],
  ["O=C(/C=C/C=C/c1ccc2c(c1)OCO2)N/N=C\\c1ccc(O)cc1O", "UACC-257 melanoma", "3.06 µM"],
  ["O=C1c2ccc3c4c(ccc(c24)C(=O)N1CCNCc1ccccc1)C(=O)N(CCNCc1ccccc1)C3=O", "UACC-257 melanoma", "1.69 µM"],
  ["C[C@]12CC[C@@H]3c4ccc(OC(=O)N(CCCl)CCCl)cc4CC[C@H]3[C@@H]1CC[C@@H]2OP(=O)(O)O", "UACC-257 melanoma", "44.5 µM"]
]}
